Attribution: paper PMC5540273

Give %Inh for every item shown.
Test system: BUB1
Settings: concentration: 1 μM, replicates: in singlicate; n = 1;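 also: KINOMEscan kinase panel screen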
Give bare numbers, in %.

Look at each compound and report its %Inh.
1. COc1cc2ncn(-c3cc(OCc4ccncc4)c(C(N)=O)s3)c2cc1OC
2. Cc1ccc(Oc2ccc(Nc3ncnc4cc[nH]c34)cc2C)cn1
3. CCC(=O)c1c(-c2ccccc2)c2cc(Cl)ccc2c(=O)n1Cc1cc(S(C)(=O)=O)n(CC(F)F)n1

1. 4
2. 0
3. 4

Look at each compound and report its %Inh.
1. CCc1nc(-c2cccc(C)c2)c(-c2ccncc2)s1
2. COc1cc(Nc2nccc(N3CCC(NC(=O)C(C)c4ccc(Cl)cc4)C3)n2)cc(OC)c1OC (centres unmarked)

35
48

* * *

Tested on: PIP5K2B
Conditions: concentration: 1 μM, replicates: in singlicate; n = 1
metric: %Inh (%)
Numbers only, in %.

>>> experimental_value("COc1ccc(-c2cc3c(C)nc(N)nc3n([C@H]3CC[C@H](O)CC3)c2=O)cn1")
2
>>> experimental_value("Cc1nn2c(=O)cc(N3CCOCC3)nc2n1Cc1cccc(Cl)c1Cl")
5

Look at each molecule and report its %Inh.
1. Cc1cccc(-c2cc(-c3c[nH]nc3-c3ccccn3)ccn2)c1
2. CCC(=O)c1c(-c2ccccc2)c2cc(Cl)ccc2c(=O)n1Cc1ccc(C(=O)O)cc1

1. 0
2. 0

* * *

Test system: WEE1
Settings: concentration: 1 μM, replicates: in singlicate; n = 1
metric: %Inh (%)
Give bare numbers, in %.

Sample answers from the record:
>>> experimental_value("CCn1c(-c2nonc2N)nc2ccccc21")
0
>>> experimental_value("Cc1cc(Nc2nc(-c3cccc(C)n3)nc3ccccc23)ccn1")
1

Look at each molecule and report its %Inh.
1. Nc1ncnc2c1ncn2-c1cccc2ccccc12
2. CN1C(=O)C(Nc2ccccc2)=C(c2ccccc2)C1=O
3. O=C(NCc1cccs1)c1cc(C(=O)c2c(Cl)cccc2Cl)c[nH]1
4. COc1cccc(-n2cnc3c(N)ncnc32)c1
5. O=C1NC(=O)C(c2ccccc2)=C1Nc1cccc(O)c1
6. Cl.NS(=O)(=O)c1cccc(Nc2cc(-c3ccc(F)cc3)n[nH]2)c1

1: 0; 2: 51; 3: 2; 4: 2; 5: 0; 6: 0

Look at each molecule and report its %Inh.
1. Nc1n[nH]c2ncc(-c3ccccc3)cc12
2. COc1cccc(C2=C(N(C)c3ccccc3)C(=O)NC2=O)c1
3. Nc1ncnc2c1ncn2-c1cccc(F)c1
4. CCC(=O)c1c(-c2ccccc2)c2cc(Cl)ccc2c(=O)n1Cc1cc(S(C)(=O)=O)n(CCC(C)(C)O)n1

1: 17; 2: 4; 3: 0; 4: 0

Look at each molecule and report its %Inh.
1. CCC(=O)c1c(-c2ccccc2)c2cc(Cl)ccc2c(=O)n1Cc1cc(C(=O)NC2CC2)n(C)n1
2. Cc1ccccc1COc1cc(-n2cnc3cc(Cl)ccc32)sc1C(N)=O

0
4

Look at each molecule and report its %Inh.
1. Cc1ccc(Oc2ccc(Nc3ncnc4cc[nH]c34)cc2C)cn1
2. COc1ccc(-c2coc3ccc(-c4nnc(SCc5cccc(C#N)c5)o4)cc23)cc1

0
0

* * *

Tested on: MAP3K1
Settings: concentration: 1 μM, replicates: in singlicate; n = 1
metric: %Inh
Write down the value, and be sure its unit follows.

Sample answers from the record:
>>> experimental_value("CCCNC(=O)Nc1ccc(Oc2ncnc3ccn(C)c23)cc1")
"31%"
>>> experimental_value("COC(=O)c1c(-c2ccccc2)c2cc(C)ccc2c(=O)n1Cc1ccccc1")
"0%"
>>> experimental_value("CCS(=O)c1ccc(-c2coc3ccc(-c4nnc(C)o4)cc23)cc1 (stereo not drawn)")
"3%"
>>> experimental_value("CC(C)(C)c1ccc(C(=O)Nc2cn3cc(-c4ccccc4)ccc3n2)cc1")
"0%"
>>> experimental_value("Nc1nccc2scc(-c3ccc4c(c3)CCN4C(=O)Cc3ccccc3)c12")
"0%"

Look at each molecule and report its %Inh.
1. FC(F)(F)c1ccc(-c2ncn(CCCN3CCOCC3)c2-c2ccncc2)cc1
2. COc1cc(Nc2nccc(N3CCC(NC(=O)C(C)c4ccc(Cl)cc4)C3)n2)cc(OC)c1OC (stereo not drawn)
3. O=C(Nc1n[nH]c2cc(-c3ccccc3F)ccc12)C1CC1

1: 12%; 2: 1%; 3: 0%

* * *

Test system: BRSK2
Details: concentration: 1 μM, replicates: in singlicate; n = 1
Give %Inh for every item shown.
Numbers only, in %.

>>> experimental_value("CCc1ccc(-c2ccc3c(c2)-c2nn(C)cc2S(=O)(=O)N3C)cc1")
11
>>> experimental_value("COc1cc2ncn(-c3cc(OCc4ccncc4)c(C(N)=O)s3)c2cc1OC")
0
>>> experimental_value("CN1C(=O)C(Nc2cc(Cl)c(O)c(Cl)c2)=C(c2ccc(Cl)cc2)C1=O")
0
>>> experimental_value("Nc1ncnc2c1ncn2-c1ccc(Cl)cc1")
9
>>> experimental_value("COc1cccc(C2=C(Nc3cccc(C(=O)O)c3)C(=O)NC2=O)c1")
17

Look at each compound and report its %Inh.
1. COc1ccc(-c2cc3c(C)nc(N)nc3n([C@H]3CC[C@H](O)CC3)c2=O)cn1
2. COc1cc2nccc(Nc3ccc(OCc4ccc(NC(C)=O)cc4)cc3)c2cc1OC.Cl
3. CCn1c(-c2ccoc2)nc2cnccc21
4. COc1cc(Nc2nccc(N3CCC(NC(=O)C(C)c4ccc(Cl)cc4)C3)n2)cc(OC)c1OC (centres unmarked)
5. O=C(NCCNc1ccnc(Nc2ccc(F)cc2)n1)Nc1ccc2c(c1)OCO2

[0, 0, 0, 0, 0]

Form field: reported %Inh of Cn1c(=O)c(F)c(Nc2ccc(I)cc2F)c2c(=O)n(OC[C@H](O)CO)cnc21
15

* * *

Test system: WEE2
Conditions: concentration: 1 μM, replicates: in singlicate; n = 1
Would you please tag the item Y when its %Inh is 1% or above, and N when it is below?

Example entries begin here.
>>> category("O=C(Nc1n[nH]c2nc(-c3ccccc3)c(Cl)cc12)C1CC1")
"N"
>>> category("Cc1ccccc1COc1cc(-n2cnc3cc(Cl)ccc32)sc1C(N)=O")
"Y"
>>> category("Cc1nnc(-c2ccc(C)c(-c3ccc(C(=O)O)cc3)c2)o1")
"N"
>>> category("Cc1nnc(-c2ccc3ncn(-c4ccc(S(C)=O)cc4)c3c2)o1 (centres unmarked)")
"Y"
>>> category("COc1ccc(Nc2nccc(N3CCC(NS(=O)(=O)c4ccc(NC(C)=O)cc4)C3)n2)cc1 (centres unmarked)")
"Y"

Could you verify whether the entry Cc1cccc(-c2nc(Nc3ccc4c(cnn4C)c3)c3ccccc3n2)n1 shows %Inh of no less than 1%?
N

* * *

Tested on: JNK3
Construct: gene MAPK10
Conditions: concentration: 1 μM, replicates: in singlicate; n = 1
Give %Inh for every item shown.
One number for each entry, in %.

Sample answers from the record:
>>> experimental_value("Cc1cc(Nc2nc(-c3cccc(C)n3)nc3ccccc23)ccn1")
0
>>> experimental_value("CCCNC(=O)Nc1ccc(Oc2ncnc3ccn(C)c23)cc1")
0
>>> experimental_value("COc1cc2ncn(-c3cc(OCc4ccncc4Br)c(C(N)=O)s3)c2cc1OC")
5
>>> experimental_value("COc1cc(Nc2nccc(N3CCC(NC(=O)C4COc5ccccc5O4)C3)n2)cc(OC)c1OC (stereo not shown)")
7
>>> experimental_value("Nc1ncnc2c1ncn2-c1ccc(Cl)cc1")
0
>>> experimental_value("O=C(Nc1ccc2c(c1)OCO2)NC1CCN(c2ccnc(NCc3ccc(F)cc3)n2)CC1")
0

Look at each compound and report its %Inh.
1. COc1cccc(C2=C(N(C)c3ccccc3)C(=O)NC2=O)c1
2. COc1ccc(-n2cnc3c(N)ncnc32)cc1
3. CN(C)c1cc(-c2ccc3c(N)n[nH]c3c2)nc(N)n1
4. Nc1nc(N)c2nc(-c3ccccc3)[nH]c2n1
5. CCC(=O)c1c(-c2ccccc2)c2cc(Cl)ccc2c(=O)n1Cc1ccc(C(=O)O)cc1
6. O=c1cc(N2CCOCC2)nc2n(Cc3ccc(F)c(Cl)c3)ccn12
7. COc1ccc(-c2cc3c(C)nc(N)nc3n([C@H]3CC[C@H](OCCO)CC3)c2=O)cn1
8. CCn1c(-c2ccoc2)nc2cnccc21

1: 0; 2: 0; 3: 4; 4: 8; 5: 94.6; 6: 5; 7: 0; 8: 0

Look at each compound and report its %Inh.
1. CCS(=O)(=O)c1ccc(OC)c(Nc2ncc(-c3ccc(F)cc3)o2)c1.Cl
2. Cn1c(=O)c(F)c(Nc2ccc(I)cc2F)c2c(=O)n(OC[C@H](O)CO)cnc21
3. CCc1ccc(-c2ccc3c(c2)-c2nn(C)cc2S(=O)(=O)N3C)cc1
4. COc1ccc(-c2cc3c(C)nc(N)nc3n([C@H]3CC[C@H](O)CC3)c2=O)cn1
5. Cl.NS(=O)(=O)c1cccc(Nc2cc(-c3ccc(F)cc3)n[nH]2)c1
6. COc1ccc(Nc2nccc(N3CCC(NS(=O)(=O)c4ccc(NC(C)=O)cc4)C3)n2)cc1 (stereo not shown)
7. Nc1ncnc2c1ncn2-c1cccc(F)c1
8. COc1cc(Nc2nccc(N3CCC(NC(=O)C(C)c4ccc(Cl)cc4)C3)n2)cc(OC)c1OC (stereo not shown)

0
0
0
0
0
0
36
0

Look at each compound and report its %Inh.
1. O=C(Nc1n[nH]c2cc(-c3ccccc3F)ccc12)C1CC1
2. Fc1cccc(CSc2nnc(-c3ccc4c(c3)CCO4)o2)c1
3. COc1cc(Nc2ccnc3ccc(C(F)(F)F)cc23)cc(OC)c1OC
4. OCCCNc1nccc(-c2c(-c3cccc(C(F)(F)F)c3)nn3cc(C(F)(F)F)ccc23)n1
5. COc1cccc(C2=C(Nc3cccc(C(=O)O)c3)C(=O)NC2=O)c1
6. O=C(Nc1n[nH]c2nc(-c3ccccc3)c(Cl)cc12)C1CC1
7. FC(F)(F)c1ccc(-c2ncn(CCCN3CCOCC3)c2-c2ccncc2)cc1
8. CCC(=O)c1c(-c2ccccc2)c2cc(Cl)ccc2c(=O)n1Cc1cc(S(C)(=O)=O)n(CCC(C)(C)O)n1

15
4
29
15
17
29
55
99.9

Form field: reported %Inh of Cc1nnc(-c2ccc(C)c(-c3ccc(C(=O)O)cc3)c2)o1
0
